measurement-protocol: Growth inhibition of human NHDF cells after 48 hrs by SRB assay
Type: cell-based
details: NHDF cells
quantity-kind: GI50 at 48 h (µM)

CN1CCN(Cc2ccc(C(c3ccccc3)C34CC5CC(CC(C5)C3)C4)cc2)CC1 (stereo not drawn)    5.12
CN1CCN(CCCc2ccc(C(c3ccccc3)C34CC5CC(CC(C5)C3)C4)cc2)CC1 (stereo not drawn)    9.68
CN1CCN(CCc2ccc(C(c3ccccc3)C34CC5CC(CC(C5)C3)C4)cc2)CC1 (stereo not drawn)    4.18
O=c1[nH]cc(F)c(=O)[nH]1    62
c1ccc(C(c2ccc(CCCN3CCCCC3)cc2)C23CC4CC(CC(C4)C2)C3)cc1 (stereo not drawn)    2.83
c1ccc(C(c2ccc(CCN3CCCCC3)cc2)C23CC4CC(CC(C4)C2)C3)cc1 (stereo not drawn)    18.6
c1ccc(CN2CCN(CCCc3ccc(C(c4ccccc4)C45CC6CC(CC(C6)C4)C5)cc3)CC2)cc1 (stereo not drawn)    39.5
c1ccc(C(c2ccc(CCCN3CCNCC3)cc2)C23CC4CC(CC(C4)C2)C3)cc1 (stereo not drawn)    4.07
c1ccc(C(c2ccc(CN3CCCCC3)cc2)C23CC4CC(CC(C4)C2)C3)cc1 (stereo not drawn)    23.7
c1ccc(C(c2ccc(CN3CCNCC3)cc2)C23CC4CC(CC(C4)C2)C3)cc1 (stereo not drawn)    3.66
CCN1CCN(CCCc2ccc(C(c3ccccc3)C34CC5CC(CC(C5)C3)C4)cc2)CC1 (stereo not drawn)    5.04
CCN1CCN(Cc2ccc(C(c3ccccc3)C34CC5CC(CC(C5)C3)C4)cc2)CC1 (stereo not drawn)    6.59
CCN1CCN(CCc2ccc(C(c3ccccc3)C34CC5CC(CC(C5)C3)C4)cc2)CC1 (stereo not drawn)    7.31

Reference source for all entries: ChEMBL document CHEMBL2202989
